# Tested on: HOP-62
# protocolDetails: Growth inhibition of human HOP62 cells assessed as growth percentage at 10 uM incubated for 48 hrs by sulforhodamine B assay relative to control
# Type: functional
# experimentalSetup: HOP-62, 48 h, read-out: Activity
measuredAttribute: growth at 10 µM (%)

INSERT INTO results (molecule, measuredattribute, unitinfo, valuemeasured) VALUES
  ('CC1=C(C(=O)OCC(C)C)C(c2ccc3c(c2)OCO3)NC(=O)N1 (racemic)', 'growth at 10 µM', '%', 114),
  ('O=C1NC2=C(C(=O)c3ccccc32)C(c2ccc3c(c2)OCO3)N1 (racemic)', 'growth at 10 µM', '%', 96.1),
  ('COCCOC(=O)C1=C(C)NC(=S)N(C(C)=O)C1c1ccc2c(c1)OCO2 (racemic)', 'growth at 10 µM', '%', 87.7);

###

# System: HOP-62
# protocolDetails: Growth inhibition of human HOP62 cells assessed as growth percentage at 10 uM incubated for 48 hrs by sulforhodamine B assay relative to control
# Type: functional
# experimentalSetup: HOP-62, 48 h, read-out: Activity
This section presents compounds with their documented growth at 10 µM values.
measuredAttribute: growth at 10 µM (%)

INSERT INTO results (compound, unitinfo, valuemeasured) VALUES
  ('CC1=C(C(=O)OC(C)C)C(c2ccc3c(c2)OCO3)NC(=S)N1 (racemic)', '%', 119),
  ('CC1=C(C(=O)OC(C)C)C(c2ccc3c(c2)OCO3)NC(=O)N1 (racemic)', '%', 117),
  ('CC1=C(C(=O)c2ccccc2)C(c2ccc3c(c2)OCO3)NC(=S)N1 (racemic)', '%', 51.8),
  ('CC(=O)C1=C(C)NC(=O)NC1c1ccc2c(c1)OCO2 (racemic)', '%', 103),
  ('CC1=C(C(=O)OCC(C)C)C(c2ccc3c(c2)OCO3)NC(=S)N1 (racemic)', '%', 121),
  ('CC1=C(C(=O)OCc2ccccc2)C(c2ccc3c(c2)OCO3)NC(=O)N1 (racemic)', '%', 114),
  ('COCCOC(=O)C1=C(C)NC(=S)NC1c1ccc2c(c1)OCO2 (racemic)', '%', 98),
  ('COCCOC(=O)C1=C(C)NC(=O)NC1c1ccc2c(c1)OCO2 (racemic)', '%', 108),
  ('CC1(C)CC(=O)C2=C(C1)NC(=O)NC2c1ccc2c(c1)OCO2 (racemic)', '%', 122);

###

# Test system: OVCAR-8
# protocolDetails: Growth inhibition of human OVCAR8 cells assessed as growth percentage at 10 uM incubated for 48 hrs by sulforhodamine B assay relative to control
# Type: functional
# experimentalSetup: OVCAR-8, 48 h, read-out: Activity
measuredAttribute: growth at 10 µM (%)

INSERT INTO results (molecule, valuemeasured) VALUES
  ('CC1=C(C(=O)OCc2ccccc2)C(c2ccc3c(c2)OCO3)NC(=S)N1 (racemic)', 97.5),
  ('COCCOC(=O)C1=C(C)NC(=S)NC1c1ccc2c(c1)OCO2 (racemic)', 102),
  ('CC(=O)C1=C(C)Nc2nc3ccccc3n2C1c1ccc2c(c1)OCO2 (racemic)', 98.6),
  ('CC(=O)N1C(=S)NC(C)=C(C(=O)OCC(C)C)C1c1ccc2c(c1)OCO2 (racemic)', 95.9),
  ('CC(=O)C1=C(C)NC(=S)NC1c1ccc2c(c1)OCO2 (racemic)', 103),
  ('CC(=O)N1C(=S)NC(C)=C(C(=O)OC(C)C)C1c1ccc2c(c1)OCO2 (racemic)', 96.4),
  ('CC1=C(C(=O)OCC(C)C)C(c2ccc3c(c2)OCO3)NC(=S)N1 (racemic)', 102),
  ('CC(=O)N1C(=S)NC(C)=C(C(=O)OCc2ccccc2)C1c1ccc2c(c1)OCO2 (racemic)', 80.3),
  ('CC1=C(C(=O)OC(C)C)C(c2ccc3c(c2)OCO3)NC(=O)N1 (racemic)', 100),
  ('CC1(C)CC(=O)C2=C(C1)NC(=O)NC2c1ccc2c(c1)OCO2 (racemic)', 104),
  ('CC1=C(C(=O)OC(C)C)C(c2ccc3c(c2)OCO3)NC(=S)N1 (racemic)', 102),
  ('CC1=C(C(=O)OCc2ccccc2)C(c2ccc3c(c2)OCO3)NC(=O)N1 (racemic)', 101),
  ('CC1=C(C(=O)c2ccccc2)C(c2ccc3c(c2)OCO3)NC(=O)N1 (racemic)', 99.3),
  ('CC1=C(C(=O)OCC(C)C)C(c2ccc3c(c2)OCO3)NC(=O)N1 (racemic)', 103),
  ('O=C1C2=C(NC(=S)NC2c2ccc3c(c2)OCO3)c2ccccc21 (racemic)', 102),
  ('O=C1NC2=C(C(=O)c3ccccc32)C(c2ccc3c(c2)OCO3)N1 (racemic)', 102),
  ('COCCOC(=O)C1=C(C)NC(=O)NC1c1ccc2c(c1)OCO2 (racemic)', 99.3),
  ('CC1=C(C(=O)c2ccccc2)C(c2ccc3c(c2)OCO3)NC(=S)N1 (racemic)', 46.7),
  ('COCCOC(=O)C1=C(C)NC(=S)N(C(C)=O)C1c1ccc2c(c1)OCO2 (racemic)', 99.3),
  ('CC(=O)C1=C(C)NC(=O)NC1c1ccc2c(c1)OCO2 (racemic)', 103);
